Measured AUC(0-t) values are reported for all entries that follow.
# protocol: AUC (0 to last) in ICR mouse liver at 80 mg/kg, po administered as single dose
# Format: ADME, organism-based
# Set-up: dose 80 mg/kg, time 0 - last, route oral

# input-smiles, AUC(0-t), ng·h/mL
rows = [
    ("O=c1c2ccc(OCc3cccc(C(F)(F)F)c3)cc2[nH]c2cc(F)cc(F)c12", 11500),
    ("O=c1c2ccc(OCc3ccc(OC(F)(F)F)cc3)cc2[nH]c2cc(F)cc(F)c12", 20400),
]

###

# protocol: AUC (0 to infinity) in ICR mouse liver at 80 mg/kg, po administered as single dose
# Format: ADME, organism-based
# Set-up: dose 80 mg/kg, route oral, time infinity

# input-smiles, AUC(0-inf) (ng·h/mL)
measured = [
    ("O=c1c2ccc(OCc3cccc(OC(F)(F)F)c3)cc2[nH]c2cc(F)cc(F)c12", 19300),
]

###

# protocol: Ratio of AUC (0 to infinity) in ICR mouse liver to plasma at 80 mg/kg, po administered as single dose
# Format: ADME, organism-based
# test-settings: liver and plasma, read-out: Ratio AUC
measured-property: Kp

# input-smiles, recorded-measurement
rows = [
    ("O=c1c2ccc(Oc3ccc(OC(F)(F)F)cc3)cc2[nH]c2cc(Cl)cc(F)c12", 112),
]
